Test system: FXR:RXRa (NR concentration 270 nM, RXRa partner concentration 90 nM)
Experiment: PBM binding z-score (relative to random genomic background probes); higher = stronger binding; sequences stand for … in GC…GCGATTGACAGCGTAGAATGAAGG
Reported PBM binding z-score values are given for each entry in this list.
Reply: number alone, nothing else.

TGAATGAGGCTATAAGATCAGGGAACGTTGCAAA : -0.518
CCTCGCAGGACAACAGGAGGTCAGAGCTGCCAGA : 0.787
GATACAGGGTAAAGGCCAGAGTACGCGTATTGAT : 0.103
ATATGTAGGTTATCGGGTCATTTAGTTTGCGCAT : 3.57
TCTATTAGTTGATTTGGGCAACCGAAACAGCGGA : 0.267

Please give the measured PBM binding z-score for this sequence: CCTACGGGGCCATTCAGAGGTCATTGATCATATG
3.56

Please do the same for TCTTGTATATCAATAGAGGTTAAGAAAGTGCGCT as well.
0.889

Please do the same for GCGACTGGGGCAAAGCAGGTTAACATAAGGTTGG as well.
0.921

Please do the same for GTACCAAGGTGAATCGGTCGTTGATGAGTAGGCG as well.
0.346

Please do the same for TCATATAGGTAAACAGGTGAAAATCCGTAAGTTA as well.
1.24

Please do the same for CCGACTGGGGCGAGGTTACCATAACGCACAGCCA as well.
0.344
